Reference for the values: paper PMC12346198

Quick list: Tmax per entry.
Assay: Single-dose IV and PO pharmacokinetics in mice
Type: in vivo, male C57BL/6 mice
Conditions: male, C57BL/6, mouse, plasma; IV, 2 mg/kg (valine conjugates 2 mg/kg EQV); read-out: Tmax, Geo Mean
The reply should contain only the number, in min.

O=C(Nc1ccc(C(F)(F)F)cc1Cl)c1cc(Cl)ccc1O [compound #7]
4.8
CC(C)[C@H](N)C(=O)Oc1ccc(Cl)cc1C(=O)Nc1ccc(C(F)(F)F)cc1Cl [valine–compound #7]
4.8
CC(C)[C@H](N)C(=O)Oc1ccc(Cl)cc1C(=O)Nc1ccc(C(F)(F)F)cc1 [valine–compound #11]
23.4
CC(C)[C@H](N)C(=O)Oc1ccc(Cl)cc1C(=O)Nc1ccc([N+](=O)[O-])cc1Cl [valine–niclosamide]
4.8

Any idea what Tmax was measured for O=C(Nc1ccc(C(F)(F)F)cc1)c1cc(Cl)ccc1O [compound #11] ? 4.8

----------
Experiment: Single-dose IV and PO pharmacokinetics in mice
Type: in vivo, male C57BL/6 mice
Conditions: IV, 2 mg/kg (valine conjugates 2 mg/kg EQV)
The threshold is 2 h. Values of HL_Lambda_z, Geo Mean beneath it are tagged Y; values meeting or exceeding it are tagged N.

Worked cases, answers included:
CC(C)[C@H](N)C(=O)Oc1ccc(Cl)cc1C(=O)Nc1ccc(C(F)(F)F)cc1 [valine–compound #11]
Y
O=C(Nc1ccc(C(F)(F)F)cc1)c1cc(Cl)ccc1O [compound #11]
Y
CC(C)[C@H](N)C(=O)Oc1ccc(Cl)cc1C(=O)Nc1ccc(C(F)(F)F)cc1Cl [valine–compound #7]
N

Is the reported HL_Lambda_z, Geo Mean for CC(C)[C@H](N)C(=O)Oc1ccc(Cl)cc1C(=O)Nc1ccc([N+](=O)[O-])cc1Cl [valine–niclosamide] strictly below 2 h? Y

Is HL_Lambda_z, Geo Mean strictly under 2 h for the entry O=C(Nc1ccc(C(F)(F)F)cc1Cl)c1cc(Cl)ccc1O [compound #7] ? N

----------
Experiment: Single-dose IV and PO pharmacokinetics in mice
Assay type: in vivo, male C57BL/6 mice
Conditions: male, C57BL/6, mouse, in vivo, iv, 2 mg/kg
experimental_readout: Tmax (min)
Hi! Could you send only the number? It should be in min, unit omitted.

Fill in the blank: the reported Tmax of O=C(Nc1ccc([N+](=O)[O-])cc1Cl)c1cc(Cl)ccc1O [Niclosamide, niclosamide, reference compound] is ____. 4.8

----------
Assay: Single-dose IV and PO pharmacokinetics in mice
Type: in vivo, male C57BL/6 mice
Conditions: male, C57BL/6, mouse, plasma, po, 40 mg/kg, PO, 40 mg/kg (valine conjugates 40 mg/kg EQV); analyte = dosed compound; non-compartmental analysis; read-out: AUCall, Geo Mean
experimental_readout: log10(AUC) (log10 of the value in µM·h)
Note the log scale: values are log10 of AUC expressed in µM·h.

Please review the entries below; each comes with its answer.
O=C(Nc1ccc(C(F)(F)F)cc1Cl)c1cc(Cl)ccc1O
1.11
O=C(Nc1ccc(C(F)(F)F)cc1)c1cc(Cl)ccc1O
0.90
CC(C)[C@H](N)C(=O)Oc1ccc(Cl)cc1C(=O)Nc1ccc(C(F)(F)F)cc1Cl
1.79
CC(C)[C@H](N)C(=O)Oc1ccc(Cl)cc1C(=O)Nc1ccc([N+](=O)[O-])cc1Cl [valine–niclosamide]
1.69

Switching to the query record.
Record request: log10(AUC) value, item `CC(C)[C@H](N)C(=O)Oc1ccc(Cl)cc1C(=O)Nc1ccc(C(F)(F)F)cc1` 0.62

----------
As shown below, each of these molecules has a reported k el value.
Assay: Pharmacokinetic modeling of valine pro-drug conversion to parent
Type: in vivo, mice
Conditions: C57BL/6, mouse, plasma; model estimate; read-out: Kel, elimination rate constant of valine conjugate (converted)
Just the number please, in s⁻¹, no unit attached.

Please review the entries below; each comes with its answer.
CC(C)[C@H](N)C(=O)Oc1ccc(Cl)cc1C(=O)Nc1ccc([N+](=O)[O-])cc1Cl [valine–niclosamide]
0.000789
CC(C)[C@H](N)C(=O)Oc1ccc(Cl)cc1C(=O)Nc1ccc(C(F)(F)F)cc1Cl
0.00147

// next entry
Form field: reported k el of `CC(C)[C@H](N)C(=O)Oc1ccc(Cl)cc1C(=O)Nc1ccc(C(F)(F)F)cc1` 0.00853

----------
Assay: Single-dose IV and PO pharmacokinetics in mice
Assay type: in vivo, male C57BL/6 mice
Conditions: male, C57BL/6, mouse, plasma; single IV dose, 2 mg/kg or molar equivalent; read-out: Systemic clearance following an IV dose (converted)
experimental_readout: clearance (mL/min)
Dear colleague, please return just the value in mL/min, with no unit written.

O=C(Nc1ccc(C(F)(F)F)cc1)c1cc(Cl)ccc1O [compound #11]
0.5
CC(C)[C@H](N)C(=O)Oc1ccc(Cl)cc1C(=O)Nc1ccc([N+](=O)[O-])cc1Cl [valine–niclosamide]
0.333
CC(C)[C@H](N)C(=O)Oc1ccc(Cl)cc1C(=O)Nc1ccc(C(F)(F)F)cc1Cl [valine–compound #7]
0.167
CC(C)[C@H](N)C(=O)Oc1ccc(Cl)cc1C(=O)Nc1ccc(C(F)(F)F)cc1 [valine–compound #11]
0.0667

Any idea what its clearance is? The compound is O=C(Nc1ccc(C(F)(F)F)cc1Cl)c1cc(Cl)ccc1O [compound #7] 0.667

----------
Test: Single-dose IV and PO pharmacokinetics in mice
Format: in vivo, male C57BL/6 mice
Details: male, C57BL/6, mouse, plasma, iv, 2 mg/kg, IV, 2 mg/kg (valine conjugates 2 mg/kg EQV); read-out: Cmax, Geo Mean
experimental_readout: Cmax
Please make sure the unit comes right after the number.

Below, each entry is followed by its recorded Cmax result.
O=C(Nc1ccc(C(F)(F)F)cc1Cl)c1cc(Cl)ccc1O
6.98 µM
CC(C)[C@H](N)C(=O)Oc1ccc(Cl)cc1C(=O)Nc1ccc(C(F)(F)F)cc1
20.2 µM
CC(C)[C@H](N)C(=O)Oc1ccc(Cl)cc1C(=O)Nc1ccc([N+](=O)[O-])cc1Cl [valine–niclosamide]
11.2 µM
CC(C)[C@H](N)C(=O)Oc1ccc(Cl)cc1C(=O)Nc1ccc(C(F)(F)F)cc1Cl
10.1 µM

We now examine a further molecule.
Param item = `O=C(Nc1ccc(C(F)(F)F)cc1)c1cc(Cl)ccc1O` ; retrieve measured Cmax. 11.3 µM

----------
Experiment: Single-dose IV and PO pharmacokinetics in mice
Assay type: in vivo, male C57BL/6 mice
Details: male, C57BL/6, mouse, in vivo, po, 40 mg/kg, Cmax, Geo Mean
experimental_readout: Cmax (nM)
Response body: numeric value in nM, unit text excluded.

Can you share its Cmax? I mean this compound: O=C(Nc1ccc([N+](=O)[O-])cc1Cl)c1cc(Cl)ccc1O [Niclosamide, niclosamide, reference compound] 1650

----------
Assay: Single-dose IV and PO pharmacokinetics in mice
Format: in vivo, male C57BL/6 mice
Conditions: male, C57BL/6, mouse, plasma; PO, 40 mg/kg (valine conjugates 40 mg/kg EQV); read-out: Tmax, Geo Mean
experimental_readout: Tmax (min)
Report the value in min with no unit label.

Worked set:
CC(C)[C@H](N)C(=O)Oc1ccc(Cl)cc1C(=O)Nc1ccc(C(F)(F)F)cc1 [valine–compound #11]
60
CC(C)[C@H](N)C(=O)Oc1ccc(Cl)cc1C(=O)Nc1ccc(C(F)(F)F)cc1Cl [valine–compound #7]
75.6
O=C(Nc1ccc(C(F)(F)F)cc1Cl)c1cc(Cl)ccc1O [compound #7]
15
CC(C)[C@H](N)C(=O)Oc1ccc(Cl)cc1C(=O)Nc1ccc([N+](=O)[O-])cc1Cl [valine–niclosamide]
40.2

Any idea what its Tmax is? The compound is O=C(Nc1ccc(C(F)(F)F)cc1)c1cc(Cl)ccc1O [compound #11] 25.2
